target: bovine factor Xa (Bos taurus, UniProt P00743); construct: bovine factor Xa, Chromogenix, 2 nkat/mL; purchased Chromogenix; experiment: Protease inhibitory assay, chromogenic substrate S-2222; assay type: biochemical; settings: FactorXa primary screening; substrate 100 µM; cmpd conc 200 µM
Sequence (P00743 234-492 limits assumed): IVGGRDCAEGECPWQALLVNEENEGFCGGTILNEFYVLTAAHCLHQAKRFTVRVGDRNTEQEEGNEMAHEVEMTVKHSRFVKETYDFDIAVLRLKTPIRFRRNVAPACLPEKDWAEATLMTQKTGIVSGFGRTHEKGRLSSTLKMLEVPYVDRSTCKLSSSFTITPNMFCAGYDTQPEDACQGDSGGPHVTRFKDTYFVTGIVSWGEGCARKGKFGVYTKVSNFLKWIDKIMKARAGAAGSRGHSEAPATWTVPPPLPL
Sequence (P00743 41-180 partner limits assumed): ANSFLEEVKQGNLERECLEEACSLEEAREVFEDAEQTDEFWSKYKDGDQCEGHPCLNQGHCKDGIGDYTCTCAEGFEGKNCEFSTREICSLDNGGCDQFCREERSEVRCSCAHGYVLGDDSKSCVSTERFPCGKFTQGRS
Each entry below lists one item and its recorded V0 / Vi value.

Query V0 / Vi on bovine factor Xa (Bos taurus, UniProt P00743) for c1cnc2ncccc2c1 [SX-A3] 0.96

---
Query V0 / Vi on bovine factor Xa (Bos taurus, UniProt P00743) for O=C1CCN(c2ccncc2)CC1 [SX-G7] 1.03

Same again, this time with NCC1(c2ccccc2)CCOCC1 [SX-F10] 0.94

Same again, this time with N#Cc1ccc(C(=O)N2CCOCC2)cc1 [SX-E10] 1.00

----------
Each entry below lists one item and its recorded inhibition at 10 µM value.
target: human 5-HT7b receptor (Homo sapiens, UniProt P34969); construct: expressed in transfected cells; assay: GPCR radioligand binding assay, [3H]-5-CT displacement, HEK293 membranes; settings: 5-HT7; replicate exp_1; read-out: %inh 5-HT7 exp_1
Sequence (P34969 1-432): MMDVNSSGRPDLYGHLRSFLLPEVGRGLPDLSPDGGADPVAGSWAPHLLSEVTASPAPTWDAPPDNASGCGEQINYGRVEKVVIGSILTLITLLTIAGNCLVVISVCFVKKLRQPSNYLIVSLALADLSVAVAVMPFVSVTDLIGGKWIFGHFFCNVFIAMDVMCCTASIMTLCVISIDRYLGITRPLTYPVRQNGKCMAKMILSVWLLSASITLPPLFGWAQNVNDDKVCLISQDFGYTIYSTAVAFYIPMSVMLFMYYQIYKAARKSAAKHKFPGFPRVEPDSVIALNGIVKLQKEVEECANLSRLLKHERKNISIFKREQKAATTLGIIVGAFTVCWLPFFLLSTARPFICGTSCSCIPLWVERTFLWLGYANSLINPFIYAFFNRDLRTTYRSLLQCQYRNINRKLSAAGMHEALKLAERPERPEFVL
Quick reminder: number only, in %, skip the unit.

# annotated cases, reported inhibition at 10 µM shown
Can you look up the measured inhibition at 10 µM of Nc1nnc2ccccn12 for me? -4.51

Same again, this time with c1cnc2cccnc2c1 39

Same again, this time with CC(=O)c1sc(-c2ccc(O)cc2)nc1C [E1] 36

Same again, this time with Nc1nnc(-c2cccs2)[nH]1 1.55

---
Can you look up the measured inhibition at 10 µM of CS(=O)(=O)Nc1ccc(C(=O)O)cc1 for me? 5.33

Same again, this time with O=C1NC(=O)/C(=C\c2cccs2)N1 6

----------
molecular target: human 5-HT1A receptor (Homo sapiens, UniProt P08908); construct: expressed in transfected cells; test: GPCR radioligand binding assay, [3H]-8-OH-DPAT displacement, HEK293 membranes; settings: 5-HT1A; average, values below 0 and above 100% were set as 0 and 100; read-out: %inh 5-HT1A corrected*
Sequence (P08908 whole entry): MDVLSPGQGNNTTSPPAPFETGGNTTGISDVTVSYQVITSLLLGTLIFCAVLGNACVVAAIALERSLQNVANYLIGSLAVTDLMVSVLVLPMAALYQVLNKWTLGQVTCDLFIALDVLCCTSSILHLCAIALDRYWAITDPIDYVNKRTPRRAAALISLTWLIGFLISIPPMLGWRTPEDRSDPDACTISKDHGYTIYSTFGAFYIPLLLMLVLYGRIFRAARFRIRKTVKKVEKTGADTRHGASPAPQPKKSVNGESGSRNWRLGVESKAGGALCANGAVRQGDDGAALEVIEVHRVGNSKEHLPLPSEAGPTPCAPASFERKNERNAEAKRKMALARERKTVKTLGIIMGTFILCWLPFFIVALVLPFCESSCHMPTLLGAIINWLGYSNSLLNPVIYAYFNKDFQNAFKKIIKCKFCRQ
Measurement label: inhibition at 10 µM (%)
Quick reminder: number only, in %, skip the unit.

# annotated cases, reported inhibition at 10 µM shown
Can you look up the measured inhibition at 10 µM of Cn1c(N)nc2ccccc21 [A6] for me? 0

Same again, this time with CS(=O)(=O)Nc1ccc(C(=O)O)cc1 [SX084] 9

Same again, this time with O=C(O)c1cnc(-c2ccccc2)s1 [F3] 2.52

Same again, this time with c1ccc(Nc2nncs2)cc1 [D8] 0

Same again, this time with Nc1nnc(-c2cccs2)[nH]1 [D3] 0.863

---
Can you look up the measured inhibition at 10 µM of CC(=O)c1sc(-c2ccc(O)cc2)nc1C [E1] for me? 0

Same again, this time with O=C(c1ccccc1F)N1CCNCC1 [E12] 15

----------
target: human 5-HT1A receptor (Homo sapiens, UniProt P08908); construct: expressed in transfected cells; experiment: GPCR radioligand binding assay, [3H]-8-OH-DPAT displacement, HEK293 membranes; conditions: 5-HT1A; average of exp_1 and exp_2; read-out: %inh 5-HT1A average
Each entry below lists one item and its recorded inhibition at 10 µM value.
Quick reminder: number only, in %, skip the unit.

Query inhibition at 10 µM on human 5-HT1A receptor (Homo sapiens, UniProt P08908) for Nc1nnc(-c2cccs2)[nH]1 0.863

Same again, this time with Oc1ccccc1N1CCCCC1 -10

Same again, this time with c1ccc(Nc2nncs2)cc1 -2.41

Same again, this time with O=C(O)C1CCN(c2ncccn2)CC1 3

Same again, this time with O=C(c1ccccc1F)N1CCNCC1 15
